Measured TGI of individual entries
tested on: SK-MEL-2 melanoma; assay: NCI tumour cell line growth inhibition, 48 h
outcome-measure: TGI

{"molecule": "COc1ccc2nc3cc(Cl)ccc3c(NCCCCCN3CCCCC3)c2c1", "system-tested": "SK-MEL-2 melanoma", "reported": "4.04 µM"}
{"molecule": "CCOC(=O)c1cc(NC(=O)N(CCC#N)CCN(C(=O)N[C@@H](Cc2ccccc2)C(=O)N[C@@H](CC(C)C)C(=O)NC)c2ccccc2)ccc1OC", "system-tested": "SK-MEL-2 melanoma", "reported": "> 100 µM"}
{"molecule": "CC(=O)SSC1(Cl)C(C)(C)C(Cl)(SSC(C)=O)C1(C)C (stereo not given)", "system-tested": "SK-MEL-2 melanoma", "reported": "> 100 µM"}
{"molecule": "CCN(CC)CCN1C=CC(C)C(C(=O)O)C1C(N)=O (stereo not given)", "system-tested": "SK-MEL-2 melanoma", "reported": "> 100 µM"}
{"molecule": "Cc1cc(Nc2cccc(F)c2)nc(NCc2ccccc2)n1", "system-tested": "SK-MEL-2 melanoma", "reported": "25.4 µM"}
{"molecule": "CCOc1cc2c[n+](C)c3c4cc(OC)c(OC)cc4ccc3c2cc1OC", "system-tested": "SK-MEL-2 melanoma", "reported": "> 100 µM"}
{"molecule": "NC(CSS(=O)(=O)c1ccccc1)C(=O)O (stereo not given)", "system-tested": "SK-MEL-2 melanoma", "reported": "> 10 µM"}
{"molecule": "CC(=O)OC[C@]1(C)C=C2C(=O)[C@](C)(O)C3(CC3)C(C)=C2[C@H]1OC(=O)N(C)CCN(C)C(=O)OC(C)(C)C", "system-tested": "SK-MEL-2 melanoma", "reported": "1.42 µM"}
{"molecule": "COC(=O)[C@]12CSCN1C(=O)C(C(C)=O)=NN2C(=O)[C@](OC)(c1ccccc1)C(F)(F)F", "system-tested": "SK-MEL-2 melanoma", "reported": "> 100 µM"}
{"molecule": "CC(=O)OC/C=C(\\C)CCC(Br)C(C)(C)Br (stereo not given)", "system-tested": "SK-MEL-2 melanoma", "reported": "> 10 µM"}
